Recorded ΔTm by entry
study-system: Tyrosine-protein kinase ABL1 (Homo sapiens)
experimental-context: Compound concentration 20.0 uM, Protein concentration 2.0 uM, Result type QC Liability
Description: Thermal Shift Assay. Domain: start/stop: S229-K512

| test-smiles | ΔTm [°C] |
| --- | --- |
| Nc1nccc(-c2c(-c3ccc(F)cc3)ncn2C2CCCCC2)n1 | 2.76 |
| CCS(=O)(=O)Nc1cccc(Oc2cc(F)cc(Nc3ccc(I)cc3F)c2NS(=O)(=O)C2CC2)c1 | 1.05 |
| CC(=O)c1c(C)c2cnc(Nc3ccn(C)n3)nc2n(C2CCCC2)c1=O | -0.44 |
| CCS(=O)(=O)c1cc2cc(C[C@](O)(CC(C)(C)c3ccc(F)cc3C(N)=O)C(F)(F)F)[nH]c2cn1 | 0.15 |
| CNC(=O)COc1cc2cc(Nc3nc(N4C[C@H](C)C[C@H](C)C4)ncc3Cl)ccc2n(C)c1=O | -0.28 |
| COc1cc2c(NC3CCN(C(C)C)CC3)nc(C3CCCCC3)nc2cc1OCCCN1CCCC1 | 0.15 |
| C/C(=C\C(=O)Nc1ccccc1C(=O)O)c1ccc2ccccc2c1 | -0.72 |
| Cc1c(-c2c(F)cc(C(N)=O)c3[nH]c4c(c23)CC[C@H](C(C)(C)O)C4)cccc1-n1c(=O)c2cccc(F)c2n(C)c1=O | 3.83 |
| Nc1ncc2c(n1)-c1c([nH]c3ccc(C4=CCOCC4)cc13)CCC2 | 0.44 |
